These entries and their values trace back to paper PMC8472786.

Quick reference for Kd among some compounds
target.desc: LasR (Pseudomonas aeruginosa)
Construct: full-length LasR
Sequence (P25084 whole entry): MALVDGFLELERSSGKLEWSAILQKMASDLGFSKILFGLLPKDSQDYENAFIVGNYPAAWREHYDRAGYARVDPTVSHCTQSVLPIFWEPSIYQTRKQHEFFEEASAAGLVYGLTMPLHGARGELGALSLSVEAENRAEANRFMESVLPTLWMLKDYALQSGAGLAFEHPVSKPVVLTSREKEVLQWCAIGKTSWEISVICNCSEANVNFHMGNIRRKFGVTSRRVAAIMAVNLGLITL
run.description: microscale thermophoresis with fluorescently labeled purified LasR
Where a SMILES comes first, the peptide text is derived from it.
Value expressed in µM; do not type the unit.

Inquiry: Lookup: Kd / LasR (Pseudomonas aeruginosa) / COC(=O)[C@H](Cc1ccccc1)NC(=O)[C@@H](N)CC(=O)O [aspartame] (H-Asp-Phe-OMe)
Reply text: 11.8

Inquiry: Lab note: need Kd with LasR (Pseudomonas aeruginosa) for entry O=C1NS(=O)(=O)c2ccccc21 , please look it up.
Reply text: 12.9

Inquiry: Return Kd measured with LasR (Pseudomonas aeruginosa) given this compound: OC[C@H]1O[C@H](O[C@]2(CCl)O[C@H](CCl)[C@@H](O)[C@@H]2O)[C@H](O)[C@@H](O)[C@H]1Cl
Reply text: 12.8
